Where do these numbers come from? They come from patent US20150329642A1.

binders and their reported residual binding, % of no competitor
# Tgt: T1, cMetECDHis (human, UniProt P08581 25-932, limits assumed, biotinylated in the cross-block ELISA of Example 17)
# T1 construct: Expressed in HEK-293F cells; also called soluble cMetECDHis; biotinylated cMetECDHis
# Protocol Description: cross-block ELISA; competitor 5D5
State just the number; it will be interpreted in %.

{"Binder": "anti-c-Met HuMab 005 (IgG1) (antibody, V domains shown, also called TH1016-005; PC1016-005) VH: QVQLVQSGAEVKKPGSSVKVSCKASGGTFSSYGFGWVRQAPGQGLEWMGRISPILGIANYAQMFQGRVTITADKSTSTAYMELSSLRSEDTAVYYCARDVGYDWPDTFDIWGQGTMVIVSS VL: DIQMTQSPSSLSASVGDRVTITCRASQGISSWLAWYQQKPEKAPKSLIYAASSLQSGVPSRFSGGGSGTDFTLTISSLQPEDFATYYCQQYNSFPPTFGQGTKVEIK", "residual binding, % of no competitor (%)": 2.9}

Turning to the following binder.
Prompt: Given the binder IgG1-024 (antibody, V domains shown, also called TH1016-024; PC1016-024) VH: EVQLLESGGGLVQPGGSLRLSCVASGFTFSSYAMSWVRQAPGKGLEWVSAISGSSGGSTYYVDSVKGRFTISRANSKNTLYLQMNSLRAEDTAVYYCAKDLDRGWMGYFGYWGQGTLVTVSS VL: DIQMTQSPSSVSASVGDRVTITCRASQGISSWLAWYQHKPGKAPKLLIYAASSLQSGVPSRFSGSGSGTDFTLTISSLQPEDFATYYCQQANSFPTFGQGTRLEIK , what is its reported residual binding, % of no competitor?
Completion: 95.5
